test: in vitro; details: rat, gh3-tre-luc cells, AC50 (uM) modified / 1000, Tox21_110001=Tox21_200857; viability, 1 nM T3 present, 24 h
metric: CC50 at 24 h

Find the recorded CC50 at 24 h belonging to NC(N)=[Se] [Selenourea] and report it.
> 90 µM

====

experiment: in vitro; conditions: rat, gh3-tre-luc cells, AC50 (uM) modified / 1000, Tox21_110001=Tox21_302219; viability, 1 nM T3 present, 24 h
metric: CC50 at 24 h (µM)
Enter your answer as a number in µM; do not include the unit.

Find the recorded CC50 at 24 h belonging to CCOP(=S)(NC(C)C)Oc1ccccc1C(=O)OC(C)C (stereo not shown) [Isofenphos] and report it.
78.7

====

assay: in vitro; conditions: rat, gh3-tre-luc cells, AC50 (uM) modified / 1000
Where a name gives a salt, the structure may show the parent alone.
metric: CC50 at 24 h (µM)
Enter your answer as a number in µM; do not include the unit.

Cc1ccc(/C(=C\CN2CCCC2)c2ccccn2)cc1 [Triprolidine hydrochloride monohydrate]: 58.4

Now consider a different compound.
Find the recorded CC50 at 24 h belonging to Cc1cc(O)c(C(C)C)cc1Cl and report it.
66.1

====

system: GH3-TRE-Luc cell line; details: read-out: AC50 (uM) modified / 1000; Tox21_110001=Tox21_113421; viability, 1 nM T3 present, 24 h
metric: CC50 (µM)
Enter your answer as a number in µM; do not include the unit.

# returns recorded CC50 (system: GH3-TRE-Luc cell line) for O=C1NCCN1CCN1CCC(c2cn(-c3ccc(F)cc3)c3ccc(Cl)cc23)CC1
6.74

====

test system: GH3-TRE-Luc cell line; details: read-out: AC50 (uM) modified / 1000; Tox21_110001=Tox21_202308; viability, 1 nM T3 present, 24 h
metric: CC50

Find the recorded CC50 belonging to O=c1c(O)c(-c2ccc(O)c(O)c2)oc2cc(O)cc(O)c12 and report it.
40.5 µM

====

experiment: in vitro; conditions: rat, gh3-tre-luc cells, AC50 (uM) modified / 1000, Tox21_110001=Tox21_111817; viability, 1 nM T3 present, 24 h
metric: CC50 at 24 h

Find the recorded CC50 at 24 h belonging to O=C1C[N+]([O-])=C(c2ccccc2)c2cc(Cl)ccc2N1 and report it.
> 50 µM

====

tested on: GH3-TRE-Luc cell line; conditions: read-out: AC50 (uM) modified / 1000; Tox21_110001=Tox21_302700; viability, 1 nM T3 present, 24 h
Structures can show the parent of a compound that is named as a salt.
metric: CC50 (µM)
Enter your answer as a number in µM; do not include the unit.

# returns recorded CC50 (system: GH3-TRE-Luc cell line) for COc1ccc(N)cc1N [2,4-Diaminoanisole sulfate hydrate]
48.9

====

Recorded AC50, one value per entry.
target: TRα ligand-binding domain (Homo sapiens, UniProt P10827); construct: the receptor LBDs expressed as glutathione S-transferase (GST) fusion proteins; purchased; assay: TRa-coa LanthaScreen TR-FRET coactivator (SRC-2 peptide) recruitment, agonist (TOX21_TRA_COA_Agonist_Followup_ratio, aeid 2230); assay type: biochemical; conditions: agonist; read-out: TRa-coa AC50
Sequence (P10827 163-410 isoform P10827-2 limits assumed, other chains not shown): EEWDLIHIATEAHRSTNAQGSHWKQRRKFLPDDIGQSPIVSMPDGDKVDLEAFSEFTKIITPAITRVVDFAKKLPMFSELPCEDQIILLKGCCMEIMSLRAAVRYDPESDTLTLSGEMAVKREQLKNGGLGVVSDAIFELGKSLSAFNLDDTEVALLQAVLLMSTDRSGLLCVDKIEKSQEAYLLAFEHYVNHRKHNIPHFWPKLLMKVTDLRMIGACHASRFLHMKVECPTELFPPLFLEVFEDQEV
Counter-ions that a name gives are not always drawn.

C=C(NC(=O)C(=C)NC(=O)c1csc(C2=N[C@@H]3c4csc(n4)[C@H]4NC(=O)c5csc(n5)[C@H]([C@](C)(O)[C@@H](C)O)NC(=O)[C@H]5CSC(=N5)/C(=C/C)NC(=O)[C@H]([C@@H](C)O)NC(=O)c5csc(n5)[C@]3(CC2)NC(=O)[C@H](C)NC(=O)C(=C)NC(=O)[C@H](C)NC(=O)[C@H]([C@@H](C)CC)N[C@@H]2C=Cc3c([C@H](C)O)cc(nc3[C@H]2O)C(=O)O[C@@H]4C)n1)C(N)=O [Thiostrepton]: > 92 µM

Find the recorded AC50 belonging to Cc1cccc(C)c1[N+](=O)[O-] [1,3-Dimethyl-2-nitrobenzene] and report it.
> 92 µM

Another: C[C@H](CCC(=O)NCC(=O)O)[C@H]1CC[C@H]2[C@@H]3[C@H](O)C[C@@H]4C[C@H](O)CC[C@]4(C)[C@H]3C[C@H](O)[C@]12C [glycocholic acid]
> 92 µM

Another: Cl.NC(CO)(CO)CO [Tromethamine hydrochloride]
46.6 µM

Another: COc1ccc(OC)c(C(O)C(C)N)c1 (centres unmarked) [Methoxamine hydrochloride]
> 92 µM
